Each record here notes measured melting point.
Property Label: melting point

- Chemical Structure: "Cc1c(OCCn2ccnc2)ccc2c1CCCC2=O"
  Property Label: "melting point"
  Value: "110 to 112 °C"
- Chemical Structure: "O=C(O)c1ccc(C=C2CCc3cc(OCCn4ccnc4)ccc3C2=O)cc1"
  Property Label: "melting point"
  Value: "267 to 267.5 °C"
- Chemical Structure: "O=C1C(=Cc2cccs2)CCc2cc(OCCn3ccnc3)ccc21"
  Property Label: "melting point"
  Value: "137 to 138 °C"
- Chemical Structure: "O=C1C(=Cc2ccsc2)CCc2cc(OCCn3ccnc3)ccc21"
  Property Label: "melting point"
  Value: "61 to 62 °C"
- Chemical Structure: "O=C1C(=Cc2ccccc2)CCc2cc(OCCc3c[nH]cn3)ccc21"
  Property Label: "melting point"
  Value: "53 to 56 °C"
- Chemical Structure: "O=C1C(=Cc2ccncc2)CCc2cc(OCCn3ccnc3)ccc21"
  Property Label: "melting point"
  Value: "128.5 to 129 °C"
